target: Streptokinase A (Streptococcus pyogenes serotype M1); assay: viability-normalized secreted streptokinase activity reduction – plasminogen activation absorbance, OD405, dose response (AID 1914)
The following compounds are listed with their measured EC50 values.

See these solved cases before continuing.
N#CC(C(=O)COc1ccccc1)c1nc2ccccc2s1 (centres undefined) : 7.55 µM
COc1cc(CN=Nc2nc(Nc3ccccc3)nc(-n3nc(C)cc3C)n2)cc(OC)c1OC : > 150 µM
COC1=CC(CN=Nc2nc3ccccc3s2)C=C([N+](=O)[O-])C1=O (centres undefined) : > 150 µM
CC(N=Nc1nc2ccccc2[nH]1)c1ccc2c(c1)OCO2 (centres undefined) : > 150 µM

Exercise: Bench note: what EC50 did CCc1ccc(C2C(C#N)C(=N)C(C#N)(C#N)C3=CCC(C(C)(C)C)CC32)cc1 (centres undefined) show?
Solution: 5.84 µM

Exercise: Can you look up the measured EC50 of Cc1ccc(Nc2nc(N=NCc3ccc4c(c3)OCO4)nc(N3CCOCC3)n2)cc1 for me?
Solution: 111 µM

Exercise: So what does the record say about EC50 for C=CCN1C(=O)NC(=O)C(=C(CC)Nc2ccc(N(C)C)cc2)C1=O ?
Solution: > 150 µM

Exercise: Form field: reported EC50 of CCOc1ccc2[nH]c(=O)c(CN(CC3COCCO3)C(=O)C3CC3)cc2c1 (centres undefined)
Solution: > 150 µM

Exercise: Which measured EC50 value corresponds to Cc1ccc(-n2c(=O)c3[nH][nH]n(CC(=O)N4N=C(c5cccc6ccccc56)CC4c4ccccc4)c=3c2=O)cc1 (centres undefined) ?
Solution: 35.7 µM

Exercise: Can you share its EC50? I mean this compound: N#CC1C(=N)SC(=N)C(C#N)C1c1c(Cl)cccc1Cl (centres undefined)
Solution: 93.5 µM

Exercise: Record request: EC50 value, item COc1ccc(C2C(C(=O)c3ccccc3)C(C)=Nc3nc4ccccc4n32)c(OC)c1 (centres undefined)
Solution: > 150 µM

====

biological target: Streptokinase A (Streptococcus pyogenes serotype M1, UniProt P10520); assay: viability-normalized secreted streptokinase activity reduction – plasminogen activation absorbance, OD405, dose response (AID 1914)
Sequence (P10520 whole entry): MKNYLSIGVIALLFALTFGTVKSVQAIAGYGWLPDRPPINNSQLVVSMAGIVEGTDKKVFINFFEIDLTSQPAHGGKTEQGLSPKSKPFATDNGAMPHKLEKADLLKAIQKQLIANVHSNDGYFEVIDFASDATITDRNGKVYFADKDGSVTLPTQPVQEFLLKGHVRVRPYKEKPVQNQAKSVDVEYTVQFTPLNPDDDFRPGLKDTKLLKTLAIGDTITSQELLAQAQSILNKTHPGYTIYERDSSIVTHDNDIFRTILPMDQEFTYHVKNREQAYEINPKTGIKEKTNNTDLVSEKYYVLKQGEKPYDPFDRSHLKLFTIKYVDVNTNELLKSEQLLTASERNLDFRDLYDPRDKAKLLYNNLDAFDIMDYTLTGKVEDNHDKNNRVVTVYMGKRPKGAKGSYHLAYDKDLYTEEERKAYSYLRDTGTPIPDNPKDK
Measurement Label: EC50

Exercise: Can you look up the measured EC50 of N=C(N)C1=CC(=O)/C(=C/C=c2ccc(=C(N)N)cc2)C=C1 for me?
Solution: 20 µM

Exercise: Bench note: what EC50 did Cc1cc(=O)n(-c2nc(-c3ccccc3)cs2)[nH]1 show?
Solution: 10 µM

Exercise: Give the measured EC50 of CNC(=O)c1c(NC(=O)c2ccc(-n3c(O)ccc3O)cc2)sc2c1CCC(C)C2 (stereo not drawn) .
Solution: > 150 µM

Exercise: Fill in the blank: the reported EC50 of O=C1N=C(Nc2ccc(F)cc2)SC1=Cc1c[nH]c2ccccc12 is ____.
Solution: > 150 µM

Exercise: Fill in the blank: the reported EC50 of Cc1nn(-c2ccccc2)c(C)c1CN=Nc1nc2ccccc2[nH]1 is ____.
Solution: > 150 µM

Exercise: Using the record for Cc1ccc(NN=C(C=O)C(=O)c2ccc(Cl)cc2)cc1 , report its EC50.
Solution: 50 µM

Exercise: # input compound: CN1C(=O)C(=NNC(=S)Nc2ccccc2F)c2cc(S(=O)(=O)N3CCOCC3)ccc21 ; wanted: its EC50
Solution: > 150 µM

Exercise: Record request: EC50 value, item COc1ccc(OC)c(C2CC(C34CC5CC(CC(C5)C3)C4)=NC(=S)N2)c1 (stereo not drawn)
Solution: 14.7 µM

Exercise: Please give the measured EC50 for this compound: N#CC(C(=O)c1ccc([N+](=O)[O-])o1)c1nc2ccccc2[nH]1 (stereo not drawn)
Solution: 27.6 µM

Exercise: # get_value(readout='EC50', item= COc1ccc(NC(=S)NNC2=c3ccccc3=NC2=O)cc1 )
Solution: > 150 µM

Exercise: For CCCCN1C(=O)/C(=N\NC(=O)c2ccccc2NS(=O)(=O)c2cccs2)c2ccccc21 , what is its reported EC50?
Solution: > 150 µM

Exercise: I have this compound here, C[N+](C)(C)c1ccc(CN=Nc2nc(Cl)c(C#N)c(Cl)c2Cl)cc1 , and I need its recorded EC50.
Solution: > 150 µM

Exercise: Recorded EC50 of CCCc1sc(N=NCc2ccccn2)nc1-c1ccc(Br)cc1 , please.
Solution: > 150 µM

Exercise: Return reported EC50; argument: COC(=O)c1sc(N2C(=O)C(=O)C(C(=O)c3ccc(C)o3)C2c2ccc([N+](=O)[O-])cc2)nc1C (stereo not drawn)
Solution: > 150 µM

Exercise: Query: EC50; subject: CCc1ccc2nc(N3C(=O)C(=O)C(C(=O)c4ccco4)C3c3cccs3)sc2c1 (stereo not drawn)
Solution: > 150 µM

Exercise: Which EC50 is listed for C=Nc1c(N(C(C)=O)c2ccc(Br)cc2)c(O)c2ccccc2c1O ?
Solution: 23.9 µM

Exercise: Can you share its EC50? I mean this compound: CC(N=Nc1nc(-c2ccccc2F)nc2ccccc12)c1ccccc1O (stereo not drawn)
Solution: > 150 µM

Exercise: Entry under review: Cc1nc(N=NCc2ccc3c(c2)OCO3)sc1C . Reported EC50?
Solution: > 150 µM

Exercise: Param item = O=C1C(=O)N(Cc2ccco2)C(c2cccc(Cl)c2)C1C(=O)c1ccco1 (stereo not drawn) ; retrieve measured EC50.
Solution: > 150 µM

Exercise: Request the reported EC50 associated with CCCOc1ccc(C2C(C(=O)c3cc4ccccc4o3)C(=O)C(=O)N2c2cc(C)on2)cc1OC (stereo not drawn)
Solution: > 150 µM

Exercise: So what's the measured EC50 for this one? COc1ccc(OC)c(NC=C2C(=O)NC(=S)N(Cc3ccccc3)C2=O)c1
Solution: > 150 µM

Exercise: What value of EC50 has been reported for the following compound? COc1ccc(CN=Nc2nc(Nc3ccccc3)nc(N3CCCCC3)n2)cc1OC
Solution: > 150 µM

Exercise: Could you share which EC50 value was measured for CSc1cccc(-c2nnc(NC(=O)c3cccc(-n4c(O)ccc4O)c3)o2)c1 ?
Solution: > 150 µM

All figures here come from BindingDB's records for doi:10.7270/Q2736PBV.
